Target: EPHB2 (UniProt P29323)
Sequence (P29323 whole entry, looked up): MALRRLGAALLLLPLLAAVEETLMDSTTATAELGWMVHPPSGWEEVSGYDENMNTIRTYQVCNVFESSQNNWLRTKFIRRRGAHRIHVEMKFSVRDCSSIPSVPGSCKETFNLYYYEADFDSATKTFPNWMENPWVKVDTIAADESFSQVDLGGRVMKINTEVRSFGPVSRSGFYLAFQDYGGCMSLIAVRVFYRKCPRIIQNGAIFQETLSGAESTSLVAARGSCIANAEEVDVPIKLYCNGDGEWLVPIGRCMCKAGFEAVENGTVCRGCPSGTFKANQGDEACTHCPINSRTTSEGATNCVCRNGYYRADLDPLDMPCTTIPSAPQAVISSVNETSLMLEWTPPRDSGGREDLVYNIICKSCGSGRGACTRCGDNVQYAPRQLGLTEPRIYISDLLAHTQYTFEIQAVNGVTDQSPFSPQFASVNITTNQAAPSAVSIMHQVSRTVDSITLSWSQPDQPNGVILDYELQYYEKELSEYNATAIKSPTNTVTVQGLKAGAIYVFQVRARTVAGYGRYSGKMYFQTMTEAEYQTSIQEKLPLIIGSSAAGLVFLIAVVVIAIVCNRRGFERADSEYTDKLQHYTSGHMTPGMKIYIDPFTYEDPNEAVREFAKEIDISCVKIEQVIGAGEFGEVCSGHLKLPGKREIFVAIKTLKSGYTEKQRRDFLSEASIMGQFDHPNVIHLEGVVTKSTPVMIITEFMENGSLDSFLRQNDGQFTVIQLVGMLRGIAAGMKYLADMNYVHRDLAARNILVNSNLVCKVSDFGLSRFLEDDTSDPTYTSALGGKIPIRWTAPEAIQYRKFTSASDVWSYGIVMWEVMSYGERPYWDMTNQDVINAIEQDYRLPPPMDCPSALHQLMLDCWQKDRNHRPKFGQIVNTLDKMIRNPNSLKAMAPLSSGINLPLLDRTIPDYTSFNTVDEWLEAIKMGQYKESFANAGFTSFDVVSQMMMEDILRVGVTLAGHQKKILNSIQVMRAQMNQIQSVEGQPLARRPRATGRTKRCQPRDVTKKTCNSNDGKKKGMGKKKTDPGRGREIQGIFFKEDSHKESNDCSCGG
Test: phosphorylation enrichment, bacterial display (enrichment ratio); higher = better substrate or ligand; peptides without Tyr show the background;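 further: 11-residue human phosphosite peptides and single-mutation variants displayed on the E. coli surface, counted by deep sequencing, each peptide's frequency after selection divided by its frequency in the unselected input library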;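 further: frequency after pTyr selection over input frequency; kinase dosed for 20-30% of maximal phosphorylation in three min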
Classes by phosphorylation enrichment: 1 = under 0.5, 2 = from 0.5 up to 0.9, 3 = 0.9 and over

(Q) Which bin should I file HSQEDYFECFQ [ZIM2_Y411] under?
(A) 3

(Q) Which bin should I file RKGIRYLTSGL [PIGA_Y82] under?
(A) 1

(Q) Which bin should I file KLKRSYCSPDI [USP8_Y717_S718C] under?
(A) 1

(Q) Which bin should I file VLDSHYPEDEV [C1QBP_Y188_C186S] under?
(A) 2

(Q) Which bin should I file VHYLVYHHHHH [CACNA1H_Y519_H516Y] under?
(A) 2

(Q) Which bin should I file SESSFYKSLNL [NGEF_Y289_A286S_YF] under?
(A) 2

(Q) Which bin should I file DYDHSYYFIAT [ESD_Y262_G257D] under?
(A) 3

(Q) Which bin should I file FRARAYSFRGP [CHGA_Y381_G382S] under?
(A) 1

(Q) Which bin should I file AGREIYESDKC [TTN_Y4424] under?
(A) 2

(Q) Which bin should I file DHKRQYELLKL [KIF4B_Y684_R680H] under?
(A) 1

(Q) Which bin should I file HNVPICEGFAL [ACTC1_Y168_Y168C_YF] under?
(A) 2

(Q) Which bin should I file LASSEYPVQRR [GALK1_Y236_R239Q] under?
(A) 1

(Q) Which bin should I file KNKELYSDPFD [PDE10A_Y300_L303P] under?
(A) 3

(Q) Which bin should I file VMICAYLLHRG [PTEN_Y138] under?
(A) 2

(Q) Which bin should I file LKLWDYRRGRC [WDR5B_Y239_S240R] under?
(A) 2

(Q) Which bin should I file QKINKYLTVPA [SLC9A1_Y683_N682K] under?
(A) 2

(Q) Which bin should I file IGEGTYGVVFK [CDK2_Y15_YF] under?
(A) 3

(Q) Which bin should I file DAASNYARGHY [TUBA3E_Y103] under?
(A) 2

(Q) Which bin should I file LEISPYMLSGP [LRRK2_Y1718_R1723P] under?
(A) 2

(Q) Which bin should I file RRIHSYRSHLW [VHL_Y112_G114S] under?
(A) 3

(Q) Which bin should I file YPPTHYIRRMP [SLC4A11_Y820_V824M] under?
(A) 1

(Q) Which bin should I file DESEDCRDTVV [CNNM3_Y456_Y456C] under?
(A) 2

(Q) Which bin should I file PECEWYKNGVK [TTN_Y2112] under?
(A) 3

(Q) Which bin should I file KSRQIYDAFIM [GRK3_Y109_R104K_YF] under?
(A) 3

(Q) Which bin should I file REGKIYEYNQV [ZNF665_Y162_H157R] under?
(A) 3

(Q) Which bin should I file CTIIHYNYMCN [TP53_Y234_T231I] under?
(A) 2

(Q) Which bin should I file `STKELYEKFMI` under?
(A) 1

###

Target: FGFR3 (UniProt P22607)
Sequence (P22607 whole entry, looked up): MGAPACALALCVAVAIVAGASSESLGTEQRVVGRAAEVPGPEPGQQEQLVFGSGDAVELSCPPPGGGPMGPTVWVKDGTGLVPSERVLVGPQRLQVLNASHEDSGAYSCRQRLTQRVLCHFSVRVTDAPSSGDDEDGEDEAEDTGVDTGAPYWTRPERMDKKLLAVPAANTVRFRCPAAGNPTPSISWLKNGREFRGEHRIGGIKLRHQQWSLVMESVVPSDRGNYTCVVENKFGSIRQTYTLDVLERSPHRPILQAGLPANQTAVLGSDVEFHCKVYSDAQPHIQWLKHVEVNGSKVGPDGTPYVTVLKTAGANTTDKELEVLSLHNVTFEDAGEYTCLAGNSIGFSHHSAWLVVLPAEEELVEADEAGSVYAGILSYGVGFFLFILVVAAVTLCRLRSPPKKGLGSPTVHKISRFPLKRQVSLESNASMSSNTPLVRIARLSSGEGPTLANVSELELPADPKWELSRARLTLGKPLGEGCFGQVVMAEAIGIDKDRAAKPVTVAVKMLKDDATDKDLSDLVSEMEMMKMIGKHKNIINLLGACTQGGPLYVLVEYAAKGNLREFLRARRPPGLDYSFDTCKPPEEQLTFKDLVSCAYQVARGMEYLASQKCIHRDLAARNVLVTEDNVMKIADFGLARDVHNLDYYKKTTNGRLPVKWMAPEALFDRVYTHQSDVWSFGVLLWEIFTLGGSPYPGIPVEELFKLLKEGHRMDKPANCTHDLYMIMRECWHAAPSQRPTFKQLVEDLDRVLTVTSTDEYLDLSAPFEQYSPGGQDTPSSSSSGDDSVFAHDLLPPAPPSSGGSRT
Assay: phosphorylation enrichment, bacterial display (enrichment ratio); higher = better substrate or ligand; peptides without Tyr show the background
For each entry below, report its phosphorylation enrichment value.
Reply with the value as a number alone.

(Q) State the recorded phosphorylation enrichment for this entry: IEEGTYGVVYR [CDK11B_Y449]
(A) 0.702

(Q) State the recorded phosphorylation enrichment for this entry: LNPLIYSLRNK [OR5R1_Y290]
(A) 1.44

(Q) State the recorded phosphorylation enrichment for this entry: KELAPYDENCF [RPS19_Y48_W52C]
(A) 0.902

(Q) State the recorded phosphorylation enrichment for this entry: FADTAYNYRHG [PAH_Y166_I164T]
(A) 0.601

(Q) State the recorded phosphorylation enrichment for this entry: LDYNEYFRYLN [HPRT1_Y198_D201Y]
(A) 2.1

(Q) State the recorded phosphorylation enrichment for this entry: CTTIHYNFMFN [TP53_Y234_C238F_YF]
(A) 0.945

(Q) State the recorded phosphorylation enrichment for this entry: EEGESHVCSSD [DCX_Y125_Y125H]
(A) 0.573

(Q) State the recorded phosphorylation enrichment for this entry: VPVPGYTKLPE [SPRR3_Y146]
(A) 0.671

(Q) State the recorded phosphorylation enrichment for this entry: EVDETYVPKKF [ALB_Y521_E525K]
(A) 0.518

(Q) State the recorded phosphorylation enrichment for this entry: RAEIVYKSPVV [MAPT_Y711_G706R]
(A) 0.857

(Q) State the recorded phosphorylation enrichment for this entry: FFIMMYTGSSV [DNAJC13_Y1131_N1135S]
(A) 0.533

(Q) State the recorded phosphorylation enrichment for this entry: KGFRGYSFDDI [TMEM230_Y110_YF]
(A) 0.501

(Q) State the recorded phosphorylation enrichment for this entry: EYHRLYEEYTR [PIK3R1_Y467_D464H]
(A) 1.61

(Q) State the recorded phosphorylation enrichment for this entry: DSFSSYCNAVA [SLC20A2_Y436_YF]
(A) 0.812

(Q) State the recorded phosphorylation enrichment for this entry: EQMASYFGHSV [ITGA2B_Y319]
(A) 0.59

(Q) State the recorded phosphorylation enrichment for this entry: PPGRSYSPYDY [TNS1_Y793]
(A) 0.855

(Q) State the recorded phosphorylation enrichment for this entry: IMVFVYCRVFQ [ADRB2_Y219_S220C]
(A) 0.632

(Q) State the recorded phosphorylation enrichment for this entry: DENWFYTRPAS [RPS19_Y54_A57P]
(A) 0.734

(Q) State the recorded phosphorylation enrichment for this entry: NTQRPHFKGGG [TYROBP_Y111_Y111H_YF]
(A) 0.443

(Q) State the recorded phosphorylation enrichment for this entry: RPASQYPHQVP [ADAM12_Y895_P893S]
(A) 0.403

(Q) State the recorded phosphorylation enrichment for this entry: TLPAFYMGNFS [GLB1_Y552]
(A) 0.728

(Q) State the recorded phosphorylation enrichment for this entry: DYNPNYCFAGK [ALK_Y1096]
(A) 0.778

(Q) State the recorded phosphorylation enrichment for this entry: CTTIHYNYMCK [TP53_Y234_N239K]
(A) 0.61

(Q) State the recorded phosphorylation enrichment for this entry: EHAGEYGAEAL [HBA1_Y25_A20E]
(A) 0.681

(Q) State the recorded phosphorylation enrichment for this entry: TVLWQYTGTRP [UGT1A1_Y337_R336Q]
(A) 0.645

(Q) State the recorded phosphorylation enrichment for this entry: FMRGMYFRMKD [PLA2G6_Y541_YF]
(A) 0.657

(Q) State the recorded phosphorylation enrichment for this entry: VLAAQYTTVGR [SGSH_Y240_D235V]
(A) 0.48

(Q) State the recorded phosphorylation enrichment for this entry: YEEDSYSHVMA [FDPS_Y388_I391V]
(A) 1.27

(Q) State the recorded phosphorylation enrichment for this entry: GAALAYGLDKS [HSPA9_Y230_A225G]
(A) 0.474

(Q) State the recorded phosphorylation enrichment for this entry: EDSEFYKAFEE [CASQ2_Y179_YF]
(A) 0.739

(Q) State the recorded phosphorylation enrichment for this entry: QMVGKYASSYM [AVPR2_Y124_M123K]
(A) 0.452

(Q) State the recorded phosphorylation enrichment for this entry: GDKKAYVRLAP [RPL23A_Y137_E133D]
(A) 0.497

(Q) State the recorded phosphorylation enrichment for this entry: AAVDNYCRHNF [HLA-DRB1_Y107_T106N_YF]
(A) 1.33

(Q) State the recorded phosphorylation enrichment for this entry: LDAGEYCVPRG [BEX1_Y43]
(A) 1.73

(Q) State the recorded phosphorylation enrichment for this entry: INASGYRIGPA [ACSM1_Y477]
(A) 0.367

(Q) State the recorded phosphorylation enrichment for this entry: SMGMKYLEEKN [ZAP70_Y451]
(A) 0.506

(Q) State the recorded phosphorylation enrichment for this entry: CTTIHNNYMCN [TP53_Y234_Y234N]
(A) 0.452

(Q) State the recorded phosphorylation enrichment for this entry: HLAQRYLIWEC [SCN5A_Y694_R689H]
(A) 1.26

(Q) State the recorded phosphorylation enrichment for this entry: GRQGIYTENKR [GPR143_Y231_E235K]
(A) 0.477

(Q) State the recorded phosphorylation enrichment for this entry: ADEEYYEIIAA [FEStide_no-pY_2014]
(A) 7.62

(Q) State the recorded phosphorylation enrichment for this entry: AAARPYHIQKW [ACSBG1_Y677]
(A) 0.584

(Q) State the recorded phosphorylation enrichment for this entry: GREAEYSDKHG [EPHB4_Y574]
(A) 0.547

(Q) State the recorded phosphorylation enrichment for this entry: PVFIKYLPEWT [PSEN1_Y240_L235P]
(A) 1.04

(Q) State the recorded phosphorylation enrichment for this entry: LGSWTYPKTVS [ROS1_Y144_T145P]
(A) 0.604

(Q) State the recorded phosphorylation enrichment for this entry: EATKGYPDDPT [G6PD_Y322_L323P]
(A) 0.609

(Q) State the recorded phosphorylation enrichment for this entry: LMIEEYLTKEP [BAG3_Y457_L462P]
(A) 1.88

(Q) State the recorded phosphorylation enrichment for this entry: FPAVGYHKPHI [IDS_Y225_L221P]
(A) 0.565

(Q) State the recorded phosphorylation enrichment for this entry: INPIIYAFVGG [CCR5_Y297_E302G]
(A) 3.51

(Q) State the recorded phosphorylation enrichment for this entry: MNLLGYRHVRS [CHST4_Y359]
(A) 0.466

(Q) State the recorded phosphorylation enrichment for this entry: LFDHIYTTQSD [RET_Y928]
(A) 3.56

(Q) State the recorded phosphorylation enrichment for this entry: CNNFIYGGCRG [SPINT2_Y163]
(A) 0.382

(Q) State the recorded phosphorylation enrichment for this entry: APIEDYGGGGG [B4GALT6_Y382]
(A) 0.697

(Q) State the recorded phosphorylation enrichment for this entry: KSLSQYLEMDK [CAGE1_Y438_V435L]
(A) 0.487

(Q) State the recorded phosphorylation enrichment for this entry: SPPILYSFYLD [FCRL6_Y239]
(A) 0.924

(Q) State the recorded phosphorylation enrichment for this entry: AVRYIYTIDGS [DCX_Y105_G100A]
(A) 0.709

(Q) State the recorded phosphorylation enrichment for this entry: IDAVCYFRMEN [NPHS2_Y194_I192V_YF]
(A) 1.34

(Q) State the recorded phosphorylation enrichment for this entry: SRVNKYSTAFG [GJB3_Y16_G12R]
(A) 0.489
